test system: MCF7; assay: Cytotoxicity against human MCF7 cells after 48 hrs by SRB assay; format: functional, cell-based; details: MCF7, 48 h
READOUT NAME: IC50 (µM)
Report the figure in µM without appending any unit label.

Worked examples, 6 compounds total:
- SMILES ENTRY: "C=CCOc1c(Cl)cc(Cl)cc1C(=O)c1cccnc1"
  RESULT VALUE: 85
- SMILES ENTRY: "C=CCOc1ccc(Cl)cc1C(=O)c1cccnc1"
  RESULT VALUE: 54
- SMILES ENTRY: "O=C(c1cccnc1)c1cc(F)ccc1O"
  RESULT VALUE: 27.8
- SMILES ENTRY: "O=C(c1cccnc1)c1ccccc1O"
  RESULT VALUE: 24.6
- SMILES ENTRY: "O=C(c1cccnc1)c1cc(Cl)ccc1O"
  RESULT VALUE: 29
- SMILES ENTRY: "C=CCOc1ccc(Br)cc1C(=O)c1cccnc1"
  RESULT VALUE: 92

Query: Indicate the recorded IC50 value for this compound: C=CCOc1ccc(C)cc1C(=O)c1cccnc1
Reply: 84

Query: Indicate the recorded IC50 value for this compound: O=C(c1cccnc1)c1cc(Cl)cc(Cl)c1O
Reply: 29.6
